Test system: Fibroblast
testSummary: Multiplex assay against human fibroblast
Assay type: toxicity, cell-based
runParameters: 24 h, 1 µM, compound concentration 1 uM, replicate 2
measuredAttribute: Population Fragmented Nuclei (%)
Field: numeric (%). Do not append units.

(Q) Which Population Fragmented Nuclei (%) is listed for "OCCCNc1cc(-c2ccnc(Nc3cccc(Cl)c3)n2)ccn1" ?
(A) 29

(Q) Which Population Fragmented Nuclei (%) is listed for COc1c(Nc2ccc(S(C)(=O)=O)nc2C)ncnc1OC1CCN(C(=O)OC(C)C)CC1 [ADP-597] ?
(A) 25

(Q) Which Population Fragmented Nuclei (%) is listed for CCCCC[C@H](O)/C=C/[C@H]1[C@H](O)CC(=O)[C@@H]1CCCCCCC(=O)O [ALPROSTADIL] ?
(A) 22

(Q) Which Population Fragmented Nuclei (%) is listed for "Cn1cc(C(=O)OCC2CCN(CCNS(C)(=O)=O)CC2)c2ccccc21" ?
(A) 25

(Q) Which Population Fragmented Nuclei (%) is listed for "Cc1cc(O)c(-c2ccc([C@@H](C)CN(C)C)cc2)c2c1[nH]c(=O)c1sccc12" ?
(A) 28

(Q) Which Population Fragmented Nuclei (%) is listed for CN(C)C/C=C/C(=O)Nc1ccc(C(=O)N2CCCC(Nc3ncc(Cl)c(-c4c[nH]c5ccccc45)n3)C2)cc1 (centres undefined) ?
(A) 26

(Q) Which Population Fragmented Nuclei (%) is listed for COC(c1ccccc1)(c1ccccc1)[C@H](Oc1nc(C)cc(C)n1)C(=O)O [AMBRISENTAN] ?
(A) 14

(Q) Which Population Fragmented Nuclei (%) is listed for CC(C)(C)c1ccc(CSc2cnn(C(C)(C)C)c(=O)c2Cl)cc1 [PYRIDABEN] ?
(A) 30

(Q) Which Population Fragmented Nuclei (%) is listed for COc1ccc2[nH]c(I)c(CCNC(C)=O)c2c1 [IODOMELATONIN] ?
(A) 26
